target: HLA-DR (DRA1*01:01 / DRB1*09:01), soluble knob-into-hole Fc heterodimer (human); experiment: ELISA
MEASURED METRIC: Ki (nM)

- KPVSKMRMATPLLMQALPM [human CLIP peptide, unlabelled competitor]: 11

Value source: paper doi:10.1101/2025.06.05.658000
